target: Ubiquitin carboxyl-terminal hydrolase 7 (Homo sapiens, UniProt Q93009); assay: Inhibition of human USP7 using Ub-EKL as substrate by SDS-PAGE assay
Sequence (Q93009 whole entry): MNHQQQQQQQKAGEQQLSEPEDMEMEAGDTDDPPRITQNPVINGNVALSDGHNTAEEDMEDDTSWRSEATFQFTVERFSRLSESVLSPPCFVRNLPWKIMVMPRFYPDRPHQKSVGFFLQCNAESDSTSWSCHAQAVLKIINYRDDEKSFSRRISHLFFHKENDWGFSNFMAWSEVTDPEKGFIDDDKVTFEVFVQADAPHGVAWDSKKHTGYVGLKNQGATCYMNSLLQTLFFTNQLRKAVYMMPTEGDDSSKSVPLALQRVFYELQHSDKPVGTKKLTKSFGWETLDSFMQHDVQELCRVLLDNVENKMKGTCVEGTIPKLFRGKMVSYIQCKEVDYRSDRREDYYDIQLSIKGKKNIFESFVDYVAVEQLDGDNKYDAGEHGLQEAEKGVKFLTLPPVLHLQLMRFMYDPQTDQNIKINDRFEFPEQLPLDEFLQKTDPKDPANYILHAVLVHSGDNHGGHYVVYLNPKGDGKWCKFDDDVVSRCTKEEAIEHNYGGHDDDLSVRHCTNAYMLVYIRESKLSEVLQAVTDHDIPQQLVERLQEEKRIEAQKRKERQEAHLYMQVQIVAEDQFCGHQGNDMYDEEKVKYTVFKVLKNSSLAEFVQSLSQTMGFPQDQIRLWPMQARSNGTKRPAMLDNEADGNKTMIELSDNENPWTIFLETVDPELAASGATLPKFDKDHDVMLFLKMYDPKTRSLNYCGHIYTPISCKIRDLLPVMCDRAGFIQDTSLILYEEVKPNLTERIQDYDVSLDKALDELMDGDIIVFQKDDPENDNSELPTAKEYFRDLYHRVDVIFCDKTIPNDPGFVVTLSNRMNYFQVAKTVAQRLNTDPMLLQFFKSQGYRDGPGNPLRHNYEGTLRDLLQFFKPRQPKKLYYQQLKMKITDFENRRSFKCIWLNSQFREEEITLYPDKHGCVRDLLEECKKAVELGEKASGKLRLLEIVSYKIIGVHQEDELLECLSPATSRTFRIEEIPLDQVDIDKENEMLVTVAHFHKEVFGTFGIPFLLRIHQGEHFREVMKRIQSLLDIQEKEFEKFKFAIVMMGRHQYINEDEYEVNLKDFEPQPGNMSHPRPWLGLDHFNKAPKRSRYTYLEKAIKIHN
Measured Parameter: pEC50
# log scale: pEC50 equals minus log10 of the concentration in mol/L

The recorded pEC50 for entry COCCNC1CS(=O)(=O)c2cc(NC(=O)c3cc([N+](=O)[O-])c(Sc4c(Cl)cncc4Cl)s3)ccc21 (stereo not drawn) equals 6.10

response.value for O=C(Nc1cccc(S(=O)(=O)CC2CC2)c1)c1cc([N+](=O)[O-])c(Sc2c(Cl)cncc2Cl)s1 (field: pEC50) = 6.41

Lookup result for CC1CS(=N)(=O)c2cc(NC(=O)c3cc([N+](=O)[O-])c(Sc4c(Cl)cncc4Cl)s3)ccc21 (stereo not drawn) ; measured pEC50: 6.33

Reported pEC50 ( CS(=O)(=O)Nc1cccc(NC(=O)c2cc([N+](=O)[O-])c(Sc3c(Cl)cncc3Cl)s2)c1 ) = 6.19

The reported value for O=C(NC1CCS(=O)(=O)c2ccccc21)c1cc([N+](=O)[O-])c(Sc2c(Cl)cncc2Cl)s1 (stereo not drawn) in terms of pEC50 is 6.09

Input O=C(c1cc([N+](=O)[O-])c(Sc2c(Cl)cncc2Cl)s1)N1CCS(=O)(=O)CC1 . Output pEC50: 5.37

// field: pEC50; key: CC1=CS(=O)(=O)c2cc(NC(=O)c3cc([N+](=O)[O-])c(Sc4c(Cl)cncc4Cl)s3)ccc21 ; value = 6.77

Record summary for CS(=O)(=O)c1cccc(NC(=O)c2cc([N+](=O)[O-])c(Sc3c(Cl)cncc3Cl)s2)c1 : reported pEC50 = 6.29

---

For each entry below, report its IC50 value.
target: UniProtKB Q93009; experiment: Inhibition of human USP7 using ubiquitin-Rh110 as substrate incubated for 30 mins by Fluorometric plate reader analysis
Number in µM, nothing else.

Observed IC50 on UniProtKB Q93009, entry C[C@@]12CCCc3coc(c31)C(=O)c1cc3c(cc12)C(=O)C=C(C1=CC(=O)c2cc4c(cc2C1=O)C(=O)c1occ2c1[C@@]4(C)CCC2)C3=O , equals 0.35

Log: UniProtKB Q93009, molecule C[C@@]12CCCc3coc(c31)Cc1cc3c(cc12)C(=O)C(C1=CC(=O)c2cc4c(cc2C1=O)C(=O)c1occ2c1[C@@]4(C)CCC2)=CC3=O , IC50 = 0.47

Tested on UniProtKB Q93009, the item C[C@@]12CCCc3c(CCO)oc(c31)C(=O)c1cc3c(cc12)C(=O)C=CC3=O showed IC50 equal to 1.4

Form field IC50 for item C[C@@]12CCC(=O)c3coc(c31)C(=O)c1cc3c(cc12)C(=O)C=CC3=O [HELENAQUINONE] on UniProtKB Q93009: 1.3

Reported UniProtKB Q93009 IC50 for item C[C@H](C1=CC(=O)c2cc3c(cc2C1=O)C(=O)c1occ2c1[C@@]3(C)CCC2)C1=CC(=O)c2cc3c(cc2C1=O)[C@]1(C)CCCc2coc(c21)C3=O was 0.49

Bench note, UniProtKB Q93009: C[C@@]12CCCc3coc(c31)C(=O)c1cc3c(cc12)C(=O)C=C(c1cc(OS(=O)(=O)O)c2cc4c(cc2c1O)C(=O)c1occ2c1[C@@]4(C)CCC2)C3=O , IC50 reads 1.2

Observed IC50, UniProtKB Q93009, C[C@@]12CCCc3coc(c31)C(=O)c1cc3c(cc12)C(=O)C=C([C@]12CCC[C@@]4(C)c5cc6c(OS(=O)(=O)O)ccc(O)c6cc5C(=O)O[C@]14C(=O)OC2)C3=O : 2
